- testedSystem: IRAK4 (Homo sapiens (Human))
- assaySummary: IRAK4 Degradation HiBiT Assay
- conditionDescription: Jurkat, read-out: Cellular IRAK4 HiBiT: Dmax, Table 5; multiple runs; HiBiT-tagged Jurkat cells, 4 hrs
- Sequence (Q9NWZ3 whole entry): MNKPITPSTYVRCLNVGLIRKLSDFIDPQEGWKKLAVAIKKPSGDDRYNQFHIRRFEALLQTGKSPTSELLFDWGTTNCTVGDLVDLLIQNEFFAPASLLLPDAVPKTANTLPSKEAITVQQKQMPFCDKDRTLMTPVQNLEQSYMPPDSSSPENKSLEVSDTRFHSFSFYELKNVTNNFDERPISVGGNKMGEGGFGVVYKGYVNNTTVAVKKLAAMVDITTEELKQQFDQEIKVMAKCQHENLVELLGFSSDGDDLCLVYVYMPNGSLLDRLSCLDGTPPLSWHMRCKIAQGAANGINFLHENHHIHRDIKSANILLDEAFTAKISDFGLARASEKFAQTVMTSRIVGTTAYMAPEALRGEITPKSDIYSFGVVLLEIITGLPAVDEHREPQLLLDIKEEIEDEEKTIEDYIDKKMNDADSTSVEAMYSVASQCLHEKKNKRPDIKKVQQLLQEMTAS
reportedEndpoint: Dmax (%)

Cc1ncsc1-c1ccc(CNC(=O)[C@@H]2C[C@@H](O)CN2C(=O)[C@@H](NC(=O)CCCC(=O)N2CCN(c3nnc(-c4cnc(-c5ccc6cc(C#N)cnn56)cc4NC(C)C)s3)CC2)C(C)(C)C)cc1; 100
Cc1ncsc1-c1ccc(CNC(=O)[C@@H]2C[C@@H](O)CN2C(=O)[C@@H](NC(=O)C2(F)CC2)C(C)(C)C)c(OCC(=O)N2CCC3(CC2)CCN(c2nnc(-c4cnc(-c5ccc6cc(C#N)cnn56)cc4NC(C)C)s2)CC3)c1; 109

a. CNc1cc(-c2ccc3cc(C#N)cnn23)ncc1-c1nnc(C23CCC(NC(=O)C[C@H](NC(=O)[C@@H]4C[C@@H](O)CN4C(=O)[C@@H](NC(=O)C4(F)CC4)C(C)(C)C)c4ccc(-c5scnc5C)cc4)(CC2)CC3)s1
b. Cc1ncsc1-c1ccc(CNC(=O)[C@@H]2C[C@@H](O)CN2C(=O)C(NC(=O)[C@H]2CC[C@H](CN3CCN(c4nnc(-c5cnc(-c6ccc7cc(C#N)cnn67)cc5NC(C)C)s4)CC3)CC2)C(C)(C)C)cc1 (stereo partly shown)
Ask: Would you let me know which has the greater Dmax value, a or b ? Label of pick, please.
Reply: a

----------
- testedSystem: IRAK4 (Homo sapiens (Human), UniProt Q9NWZ3)
- assaySummary: IRAK4 Biochemical HTRF Kinase Assay
- conditionDescription: Table 5; multiple runs; read-out: IRAK4 HTRF biochemical: IC50
- Sequence (Q9NWZ3 whole entry, species assumed): as the sequence (Q9NWZ3 whole entry) above
reportedEndpoint: IC50 (nM)

CC(C)Nc1cc(-c2ccc3cc(C#N)cnn23)ncc1-c1nnc(N2CCN(C(=O)C3CCN(c4ccc5c(c4)C(=O)N(C4CCC(=O)NC4=O)C5=O)CC3)CC2)s1 (stereo not shown) [Example 23]; 1.5

1. CNc1cc(-c2ccc3cc(C#N)cnn23)ncc1-c1nnc(N2CCC(NC(=O)C3CCN(c4cccc5c4C(=O)N(C4CCC(=O)NC4=O)C5=O)CC3)CC2)s1 (stereo not shown) [Example 90]
2. CC(C)Nc1cc(-c2ccc3cc(C#N)cnn23)ncc1-c1nnc(N2CCN(C(=O)CCOCCNc3cccc4c3C(=O)N(C3CCC(=O)NC3=O)C4=O)CC2)s1 (stereo not shown) [Example 7]
3. CC(C)Nc1cc(-c2ccc3cc(C#N)cnn23)ncc1-c1nnc([C@H]2CC[C@H](NC(=O)CCOCCOCCNc3cccc4c3C(=O)N(C3CCC(=O)NC3=O)C4=O)CC2)s1 (stereo partly shown) [Example 3]
Ask: Rank order required: IC50, descending. State the ranking by listing the labels in the requested order.
Reply: 2, 3, 1
(2: 9.2 nM, 3: 1.9 nM, 1: 0.8 nM)
